- target: Protein RecA (Mycobacterium tuberculosis, UniProt P9WHJ3)
- Sequence (P9WHJ3 whole entry): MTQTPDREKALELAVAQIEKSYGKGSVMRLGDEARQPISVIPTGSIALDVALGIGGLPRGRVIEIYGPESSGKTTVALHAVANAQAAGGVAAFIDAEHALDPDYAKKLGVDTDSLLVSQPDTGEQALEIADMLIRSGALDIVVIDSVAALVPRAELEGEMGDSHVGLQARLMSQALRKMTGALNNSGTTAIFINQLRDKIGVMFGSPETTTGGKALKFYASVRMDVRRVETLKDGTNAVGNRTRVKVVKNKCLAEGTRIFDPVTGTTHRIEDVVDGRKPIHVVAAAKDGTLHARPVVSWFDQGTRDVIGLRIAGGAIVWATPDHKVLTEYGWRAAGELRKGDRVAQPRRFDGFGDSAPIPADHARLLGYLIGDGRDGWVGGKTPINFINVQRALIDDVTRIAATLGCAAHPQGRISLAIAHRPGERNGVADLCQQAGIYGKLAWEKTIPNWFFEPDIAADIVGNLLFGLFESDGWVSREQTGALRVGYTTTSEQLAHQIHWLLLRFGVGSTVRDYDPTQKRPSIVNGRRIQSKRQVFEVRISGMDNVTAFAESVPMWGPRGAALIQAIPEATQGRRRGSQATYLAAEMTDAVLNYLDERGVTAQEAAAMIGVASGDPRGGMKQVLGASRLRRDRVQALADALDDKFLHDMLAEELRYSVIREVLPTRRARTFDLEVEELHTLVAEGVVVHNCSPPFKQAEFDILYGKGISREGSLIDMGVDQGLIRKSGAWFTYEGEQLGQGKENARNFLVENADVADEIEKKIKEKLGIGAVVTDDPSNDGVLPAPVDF
- method-description: Fluorescence Cell-Free Homogeneous Dose Retest to Identify Inhibitors of RecA-Intein Splicing Activity. [Related pubchem assays (depositor defined):AID2097, AID2223, AID489010, AID492950]
- Type: functional
Active and inactive are the calls of the source. Cut-off read from the data, not from the text of the source: actives have a measured EC50 and inactives only a lower limit.
experimental-endpoint: EC50

Check out these entries, answers already filled in.
1) CCOc1ccc2c(c1)-c1c(ssc1=S)C(C)(C)N2 | 3.17 µM (active)
2) C/C(CC(=O)Nc1ccccn1)=N\NC(=O)c1cccc(C)c1 | 7.75 µM (active)
3) O=S(=O)(O)Oc1c[nH]c2ccccc12 | 0.155 µM (active)

(Q) Complete the entry with EC50 for Cc1ccccc1/N=C1\C(Cl)=C(O)OC1OC(=O)c1ccco1 (centres undefined)
(A) 11.4 µM (active)

(Q) Complete the entry with EC50 for N#Cc1cc([N+](=O)[O-])ccc1NC(=O)COC(=O)CCC1CCCCC1
(A) 3.31 µM (active)

(Q) Complete the entry with EC50 for Cc1n[nH]c2c1C(c1ccco1)C(C#N)=C(N)O2 (centres undefined)
(A) 4.28 µM (active)
